test-target: T1, full-length Sudan GP (GPFL) (Sudan virus (SUDV), UniProt Q7T9D9 33-650)
T1 construct: also called Sudan GPFL; GP(S)FL
T1 sequence: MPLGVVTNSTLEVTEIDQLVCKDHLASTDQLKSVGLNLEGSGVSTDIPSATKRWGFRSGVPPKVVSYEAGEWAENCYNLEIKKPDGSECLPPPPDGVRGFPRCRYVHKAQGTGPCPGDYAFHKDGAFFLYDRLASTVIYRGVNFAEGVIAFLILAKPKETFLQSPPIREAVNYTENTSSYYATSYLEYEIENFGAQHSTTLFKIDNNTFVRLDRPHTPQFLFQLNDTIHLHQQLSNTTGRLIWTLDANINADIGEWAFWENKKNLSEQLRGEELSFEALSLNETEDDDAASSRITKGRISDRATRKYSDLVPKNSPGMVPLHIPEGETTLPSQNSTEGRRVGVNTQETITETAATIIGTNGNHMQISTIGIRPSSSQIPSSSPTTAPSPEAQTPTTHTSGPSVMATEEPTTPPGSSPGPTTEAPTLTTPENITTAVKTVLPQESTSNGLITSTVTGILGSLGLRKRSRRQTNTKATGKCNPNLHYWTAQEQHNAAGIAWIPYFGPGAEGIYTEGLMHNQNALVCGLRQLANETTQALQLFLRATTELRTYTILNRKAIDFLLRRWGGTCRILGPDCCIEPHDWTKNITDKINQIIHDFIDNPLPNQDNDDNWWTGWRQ
measurement-description: BLI, Fab, pH 7.4
kon reference
measurement-label: kon (M⁻¹ s⁻¹)

>>> numeric_result("Fab generated from 365S (Fab, V domains shown, also called 365S Fab) VH: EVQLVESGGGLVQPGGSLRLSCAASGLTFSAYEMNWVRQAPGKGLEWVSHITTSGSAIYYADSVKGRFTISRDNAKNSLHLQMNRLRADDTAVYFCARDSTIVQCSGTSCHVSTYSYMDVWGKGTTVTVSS VL: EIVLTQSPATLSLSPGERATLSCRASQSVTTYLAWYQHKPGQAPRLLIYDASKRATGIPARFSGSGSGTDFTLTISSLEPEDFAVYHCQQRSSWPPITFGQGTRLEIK")
16800
>>> numeric_result("Fab generated from 578S (Fab, V domains shown, also called 578S Fab) VH: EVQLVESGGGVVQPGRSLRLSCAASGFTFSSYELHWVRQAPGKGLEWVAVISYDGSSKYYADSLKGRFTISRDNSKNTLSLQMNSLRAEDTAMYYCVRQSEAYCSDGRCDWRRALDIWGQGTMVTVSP VL: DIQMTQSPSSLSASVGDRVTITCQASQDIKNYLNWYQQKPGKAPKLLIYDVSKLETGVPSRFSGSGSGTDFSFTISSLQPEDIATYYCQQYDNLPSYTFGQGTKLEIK")
4200
>>> numeric_result("Fab generated from 338S (Fab, V domains shown) VH: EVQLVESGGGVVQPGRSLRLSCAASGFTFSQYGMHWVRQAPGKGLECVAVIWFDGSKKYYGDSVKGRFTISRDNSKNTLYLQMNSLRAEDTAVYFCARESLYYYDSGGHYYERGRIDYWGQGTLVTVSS VL: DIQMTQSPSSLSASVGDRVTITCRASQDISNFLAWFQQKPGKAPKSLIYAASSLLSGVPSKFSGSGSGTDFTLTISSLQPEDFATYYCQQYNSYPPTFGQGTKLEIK")
23100
